Reference source: paper PMC4979060

Recorded pIC50 values (CphA (Aeromonas hydrophila, UniProt P26918)) are given below.
pIC50: −log10 of the molar value.
Measured metric: pIC50

[[record]]
molecule = "NCC1CCC(C(=O)N[C@H]2Cc3cccc(C(=O)O)c3O[B-]2(O)O)CC1 (some centres unmarked) [compound 3]"
measured_metric = "pIC50"
censoring_sign = "="
measured = 4.68

[[record]]
molecule = "NCc1ccc(C(=O)N[C@H]2Cc3cccc(C(=O)O)c3O[B-]2(O)O)cc1 [compound 2]"
measured_metric = "pIC50"
censoring_sign = "<"
measured = 4.00

[[record]]
molecule = "NCCNCc1ccc(C(=O)N[C@H]2Cc3cccc(C(=O)O)c3O[B-]2(O)O)cc1 [compound 5]"
measured_metric = "pIC50"
censoring_sign = "<"
measured = 4.00

[[record]]
molecule = "O=C(O)c1cccc2c1O[B-](O)(O)[C@@H](NC(=O)C1CCCCC1)C2 [compound 1]"
measured_metric = "pIC50"
censoring_sign = "="
measured = 5.35

[[record]]
molecule = "O=C(N[C@H]1Cc2cccc(C(=O)O)c2O[B-]1(O)O)c1ccc(CN2CCNCC2)cc1 [compound 4]"
measured_metric = "pIC50"
censoring_sign = "<"
measured = 4.00

